Tested on: DLD1 NRF2-WT
Assay: drug sensitivity score (DSS) viability (DSS score); higher = more sensitive; extreme values may be limits of the assay
Details: 72 h; CellTiter-Glo viability
metricName: drug sensitivity score

Item under review: COc1cc2nccc(Oc3ccc(NC(=O)C4(C(=O)Nc5ccc(F)cc5)CC4)cc3)c2cc1OC [Cabozantinib] . Reported drug sensitivity score?
0

Item under review: CCCCCCCCCCCCCCCCOP(=O)([O-])OCC[N+](C)(C)C [Miltefosine] . Reported drug sensitivity score?
13.1

Item under review: CS(=O)(=O)N1CCN(Cc2cc3nc(-c4cccc5[nH]ncc45)nc(N4CCOCC4)c3s2)CC1 [Pictilisib] . Reported drug sensitivity score?
6.8

Item under review: CC[C@@H]1C(=O)N(C)c2cnc(Nc3ccc(C(=O)NC4CCN(C)CC4)cc3OC)nc2N1C1CCCC1 [BI 2536] . Reported drug sensitivity score?
21.8
